// data source = PubChem BioAssay (NCATS)

molecular target: Rap guanine nucleotide exchange factor 3 (Homo sapiens); experiment: Confirmatory qHTS for agonist of cAMP-regulated guanine nucleotide exchange factor 3 (EPAC1) (AID 1645881); conditions: EPAC1 Rap1B BODIPY-GDP exchange fluorescence; series mostly up to 154 µM; note: nearly all actives have a fitted effect of over 75% in size;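 for activation: EPAC1 catalysed release of BODIPY-GDP from Rap1B seen as fluorescence loss; 100% = effect of cAMP agonist control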
Inconclusive results are not listed. Calls of active or inactive are those of the source. Calls come from the whole dose curve; as a rule, active = well fitted activation curve with a large enough effect; inconclusive = small, poorly fitted or top-dose-only effect; inactive = no such curve, though single readings can be large or run the other way.
Classes used: 1 (yes) (active), 0 (no) (inactive)

compound: Cc1ccc([N+](=O)[O-])cc1NC(=O)c1ccc(-c2ccccc2)cc1
class: 0 (no)
//
compound: O=C(CC(c1ccccc1)c1cc(Cl)ccc1O)N1CCCC1 (stereo not given)
class: 0 (no)
//
compound: COC(=O)c1ccc(CSc2ccc3nnc(-c4cccc(F)c4)n3n2)o1
class: 0 (no)
//
compound: Cc1ccc(NS(=O)(=O)c2ccc(C(=O)N3CC(C)CC(C)C3)cc2)cc1 (stereo not given)
class: 0 (no)
//
compound: Cc1cc(C)nc(SCC(=O)c2ccc(C)c(C)c2)n1
class: 0 (no)
//
compound: Cn1c(SCC(=O)c2cc(Cl)c(Cl)s2)nnc1-c1ccco1
class: 0 (no)
//
compound: COc1cc(NC(=O)c2ccccc2NS(=O)(=O)c2ccc(Cl)s2)cc(OC)c1
class: 0 (no)
//
compound: Nc1ccc2nc3c(=O)[nH]c(=S)[nH]c3nc2c1
class: 1 (yes)
//
compound: CCc1nc2c(OCc3ccc(C(=O)N(C)C)cc3)cccn2c1N(C)C(=O)c1ccc(C)cc1
class: 0 (no)
//
compound: N=c1c(S(=O)(=O)c2ccc(Br)cc2)cc2c(=O)n3ccccc3nc2n1C1CCCC1
class: 0 (no)

* * *

tested on: CP286; assay: qHTS profiling for inhibitors of Plasmodium falciparum proliferation (AID 504749); note: nearly all actives have a fitted effect of over 60% in size; settings: P. falciparum in erythrocytes, SYBR Green DNA, 72 h; series mostly up to 28.7 µM
Records with an inconclusive call do not appear. Active and inactive are the calls of the source. The call rests on the fitted dose curve; in most records, active means well fitted inhibition curve with a large enough effect; inconclusive means small, poorly fitted or top-dose-only effect; inactive means flat fitted curve, though single readings scatter.
Classes used: true (1) = active, false (0) = inactive

molecule: CN(C)CCCCCCN(C)C
class: false (0)

molecule: Cc1cc(CC(C)CC(C)(C)C)n(O)c(=O)c1 (stereo not drawn)
class: true (1)

molecule: CC1CCC(C(C)C)C(OC(=O)c2ccccc2O)C1 (stereo not drawn)
class: false (0)

molecule: CC(C)CN(C[C@@H](OP(=O)(O)O)[C@H](Cc1ccccc1)NC(=O)O[C@@H]1CCOC1)S(=O)(=O)c1ccc(N)cc1
class: false (0)

molecule: CCN1/C(=C/C=C/C=C/c2sc3ccccc3[n+]2CC)Sc2ccccc21
class: true (1)

molecule: CCC(C)n1ncn(-c2ccc(N3CCN(c4ccc(OCC5COC(Cn6cncn6)(c6ccc(Cl)cc6Cl)O5)cc4)CC3)cc2)c1=O (stereo not drawn)
class: true (1)

molecule: CN1CC[C@H](CN2c3ccccc3Sc3ccccc32)C1
class: true (1)

molecule: O=NCc1ccc([N+](=O)[O-])o1
class: false (0)

molecule: C/C=C\c1ccc(OC)cc1
class: false (0)

molecule: CCC(=O)O[C@@H](OP(=O)(CCCCc1ccccc1)CC(=O)N1C[C@H](C2CCCCC2)C[C@H]1C(=O)O)C(C)C (stereo partly drawn)
class: false (0)

molecule: C1OCOCO1
class: false (0)

molecule: CC1(C)S[C@@H]2[C@H](NC(=O)COc3ccccc3)C(=O)N2[C@H]1C(=O)O
class: false (0)

molecule: NC1=NC(S)C2N=CN=C2N1 (stereo not drawn)
class: false (0)
